# System: Hut78 cells
# assay summary: MTT-based viability assay, Hut78 cells
# test parameters: read-out: IC50 single treatment (HDACI); Hut78, MTT 72 h, Table 4
pIC50: −log10 of the molar value.
measure: pIC50

compound="CCCC(=O)OCOP(=O)(OCC)OCC [AN-7, Butyroyloxymethyl diethyl phosphate]" tgt="Hut78 cells" observed=4.23

---

# Test system: NPBL
# assay summary: MTT-based viability assay, normal PBL (NPBL)
# test parameters: Homo sapiens, 72 h, read-out: IC50 single treatment Dox
measure: IC50 (nM)

molecule="COc1cccc2c1C(=O)c1c(O)c3c(c(O)c1C2=O)C[C@@](O)(C(=O)CO)C[C@@H]3O[C@H]1C[C@H](N)[C@H](O)[C@H](C)O1 [Dox, doxorubicin, reference compound]" measure=IC50 unit_name=nM observed=399

---

# Tested on: MyLa cells
# assay summary: cells
# Format: cell-based, human
# test parameters: Homo sapiens, read-out: IC50 Short exposure
pIC50: −log10 of the molar value.
measure: pIC50

compound="O=C(CCCCCCC(=O)Nc1ccccc1)NO [SAHA, Suberoylanilide hydroxamic acid, reference compound]" measure=pIC50 observed=4.48

---

# Tested on: MyLa cells
# assay summary: MTT-based viability assay, MyLa cells
# test parameters: MyLa cells, MTT, 72 h
pIC50: −log10 of the molar value.
measure: pIC50

compound="CCCC(=O)OCOP(=O)(OCC)OCC [AN-7, Butyroyloxymethyl diethyl phosphate]" measure=pIC50 observed=3.92

---

# Tested on: Sezary syndrome Peripheral blood lymphocytes SPBL
# assay summary: MTT-based viability assay, Sezary PBL (SPBL)
# test parameters: Sezary PBL, MTT, 72 h
pIC50: −log10 of the molar value.
measure: pIC50

molecule="CCCC(=O)OCOP(=O)(OCC)OCC [AN-7, Butyroyloxymethyl diethyl phosphate]" tgt="Sezary syndrome Peripheral blood lymphocytes SPBL" observed=3.89

---

# Test system: MyLa cells
# assay summary: cells
# Type: cell-based, human
# test parameters: Homo sapiens, 24 h, read-out: IC50 Long exposure
pIC50: −log10 of the molar value.
measure: pIC50

compound="O=C(CCCCCCC(=O)Nc1ccccc1)NO [SAHA, Suberoylanilide hydroxamic acid, reference compound]" observed=5.64
